Data provenance: patent US12507703B2

tested on: lipase; assay: Lipase/lipolysis assay (EnzChek Lipase Substrate, quenched BODIPY-fatty acid conjugate) on stored human milk; further: test concentration or dose not given here
Listed here: items and their measured Lipase (RFU).
property-label: Lipase (RFU)

>>> measurement("O=C(O)c1ccc2ccccc2n1 [Quinoline-2-carboxylic acid]")
994.8984
>>> measurement("COc1cc([C@H]2c3cc(O)c(OC)cc3C[C@@H](C)[C@@H]2C)ccc1O [Guaiacin]")
808.3575
>>> measurement("NC(=O)NCCCC(N)C(=O)O (stereo not drawn) [2-Amino-5-ureidopentanoic acid]")
983.9261

----------
tested on: lipase; experiment: Lipase/lipolysis assay (EnzChek Lipase Substrate, quenched BODIPY-fatty acid conjugate) on stored human milk; further: test concentration or dose not given here
property-label: Lipase (RFU)

>>> measurement("NC(=O)c1ccc[n+]([C@@H]2O[C@H](COP(=O)([O-])OP(=O)(O)OC[C@H]3O[C@@H](n4cnc5c(N)ncnc54)[C@H](O)[C@@H]3O)[C@@H](O)[C@H]2O)c1")
662.6014
>>> measurement("O=C(O)C1=CO[C@@H](O[C@@H]2O[C@H](CO)[C@@H](O)[C@H](O)[C@H]2O)[C@H]2[C@@H]1C=C[C@]2(O)CO")
976.474
>>> measurement("O=c1cc(-c2ccc(O)cc2)oc2cc(O)c([C@@H]3O[C@H](CO)[C@@H](O)[C@H](O)[C@H]3O[C@@H]3O[C@H](CO)[C@@H](O)[C@H](O)[C@H]3O)c(O)c12 [Meloside A]")
811.3753
>>> measurement("CC(C)=C1C/C=C(\\C)CC/C=C(\\C)CC1=O")
974.0245
>>> measurement("CCCCCCCCCC(=O)OCC(COC(=O)CCCCCCCCC)OC(=O)CCCCCCCCC")
969.1379
>>> measurement("CC(C)[C@]12CC(=O)[C@H](C)[C@H]1C2")
659.4321
>>> measurement("CC(C)=CCc1c(O)cc2oc3cc(O)c(O)c(CCC(C)(C)O)c3c(=O)c2c1O")
921.9256
>>> measurement("CCCCCCCCC[C@H](O)CC(=O)CCc1ccc(O)c(OC)c1")
817.7781
>>> measurement("N[C@@H](Cc1ccc(O)c(Cl)c1)C(=O)O")
1117.619
>>> measurement("OC[C@H]1O[C@@H](Oc2cc3c(O)cc(O)cc3[o+]c2-c2cc(O)c(O)c(O)c2)[C@H](O)[C@@H](O)[C@@H]1O.[Cl-] [Delphinidin 3-glucoside (chloride)]")
843.0852
>>> measurement("CC(C)C[C@H](NC(=O)CN)C(=O)O")
829.1827
>>> measurement("COc1ccc([C@@H]2CC(=O)c3c(O)cc(O[C@@H]4O[C@H](CO)[C@@H](O)[C@H](O)[C@H]4O[C@@H]4O[C@@H](C)[C@H](O)[C@@H](O)[C@H]4O)cc3O2)cc1O")
774.0784
>>> measurement("C[N+](C)(C)CCOP(=O)([O-])OP(=O)([O-])OC[C@H]1O[C@@H](n2ccc(N)nc2=O)[C@H](O)[C@@H]1O.[Na+] [Citicoline (sodium)]")
965.9573
